# Tested on: SUM149PT spheroids with HUVEC/MSC, viability
# Protocol Details: Anticancer human tumor SUM149PT cell line growth inhibition [GQUAD];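 note: spheroids exposed to drugs for seven days before readout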
# Condition Description: curve of first compound; second compound 1 µM
Measured Attribute: IC50

Hello, please tell me recorded IC50 for this one: Cn1ncnc1[C@H]1c2n[nH]c(=O)c3cc(F)cc(c23)N[C@@H]1c1ccc(F)cc1 + Cc1[nH]c2ccc(F)cc2c1-c1nc2c3cccnc3c3ncccc3c2[nH]1 > 316 nM

Hello, please tell me recorded IC50 for this one: O=C(c1cc(Cc2n[nH]c(=O)c3ccccc23)ccc1F)N1CCN(C(=O)C2CC2)CC1 + CN(C)c1ccc(Nc2c3ccc(NC(=O)CCN4CCCC4)cc3nc3cc(NC(=O)CCN4CCCC4)ccc23)cc1 > 10000 nM

Hello, please tell me recorded IC50 for this one: Cc1cccc(N(C)C(=O)C2C(O)CCN2c2nc(C)cc(C(F)(F)F)c2C#N)c1 (stereo unspecified) + Cc1cnc(CNC(=O)c2c(=O)c3ccc(N4CCCN(C)CC4)nc3n3c2sc2ccccc23)cn1 < 31.6 nM

New cases:
Hello, please tell me recorded IC50 for this one: Nc1ccn(C2OC(CO)C(O)C2(F)F)c(=O)n1 (stereo unspecified) + Cc1cnc(CNC(=O)c2c(=O)c3ccc(N4CCCN(C)CC4)nc3n3c2sc2ccccc23)cn1 < 31.6 nM

Hello, please tell me recorded IC50 for this one: COc1ncnc(C2CC2)c1-c1ncc2cnn(Cc3ccc(-c4nc(C(F)(F)F)cn4C(C)C)cc3)c2n1 + Cc1cnc(CNC(=O)c2c(=O)c3ccc(N4CCCN(C)CC4)nc3n3c2sc2ccccc23)cn1 < 31.6 nM

Hello, please tell me recorded IC50 for this one: CC(C)(O)C1CCC(Nc2ccc3ncc(-c4cccc(C(F)(F)F)c4)n3n2)CC1 (stereo unspecified) + Cc1cnc(CNC(=O)c2c(=O)c3ccc(N4CCCN(C)CC4)nc3n3c2sc2ccccc23)cn1 < 31.6 nM
